FYI, the data here is from PubChem BioAssay AID1963827.

system: 994946-033-R-J1-PDC complex spheroid viability; assay: Anticancer human tumor 994946-033-R-J1-PDC patient-derived melanoma cell line growth inhibition [POLQ]; conditions: curve of first compound; second compound 0.316 µM;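 note: spheroids exposed to drugs for 7 days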
Form field: IC50 (one value per entry).
Property Measured: IC50 (µM)

>>> reported_value("C#Cc1c(F)ccc2cc(O)cc(-c3ncc4c(N5CC6CCC(C5)N6)nc(OCC56CCCN5CC(F)C6)nc4c3F)c12 (stereo not given) + Cc1cccc(N(C)C(=O)C2C(O)CCN2c2nc(C)cc(C(F)(F)F)c2C#N)c1")
4.35
>>> reported_value("COc1cc(C2c3cc4c(cc3C(OC3OC5COC(C)OC5C(O)C3O)C3COC(=O)C23)OCO4)cc(OC)c1O (stereo not given) + Nc1ccc(C#CCN(C(=O)Cc2ncc(C(F)(F)F)cc2C(F)(F)F)c2ccc(F)cc2)nn1")
0.363
